target: Sodium channel protein type 10 subunit alpha (Homo sapiens, UniProt Q9Y5Y9); experiment: Inhibition of human Nav1.8 with resting membrane potential at half inactivated state by PatchXpress high-throughput electrophysiology method
Sequence (Q9Y5Y9 whole entry): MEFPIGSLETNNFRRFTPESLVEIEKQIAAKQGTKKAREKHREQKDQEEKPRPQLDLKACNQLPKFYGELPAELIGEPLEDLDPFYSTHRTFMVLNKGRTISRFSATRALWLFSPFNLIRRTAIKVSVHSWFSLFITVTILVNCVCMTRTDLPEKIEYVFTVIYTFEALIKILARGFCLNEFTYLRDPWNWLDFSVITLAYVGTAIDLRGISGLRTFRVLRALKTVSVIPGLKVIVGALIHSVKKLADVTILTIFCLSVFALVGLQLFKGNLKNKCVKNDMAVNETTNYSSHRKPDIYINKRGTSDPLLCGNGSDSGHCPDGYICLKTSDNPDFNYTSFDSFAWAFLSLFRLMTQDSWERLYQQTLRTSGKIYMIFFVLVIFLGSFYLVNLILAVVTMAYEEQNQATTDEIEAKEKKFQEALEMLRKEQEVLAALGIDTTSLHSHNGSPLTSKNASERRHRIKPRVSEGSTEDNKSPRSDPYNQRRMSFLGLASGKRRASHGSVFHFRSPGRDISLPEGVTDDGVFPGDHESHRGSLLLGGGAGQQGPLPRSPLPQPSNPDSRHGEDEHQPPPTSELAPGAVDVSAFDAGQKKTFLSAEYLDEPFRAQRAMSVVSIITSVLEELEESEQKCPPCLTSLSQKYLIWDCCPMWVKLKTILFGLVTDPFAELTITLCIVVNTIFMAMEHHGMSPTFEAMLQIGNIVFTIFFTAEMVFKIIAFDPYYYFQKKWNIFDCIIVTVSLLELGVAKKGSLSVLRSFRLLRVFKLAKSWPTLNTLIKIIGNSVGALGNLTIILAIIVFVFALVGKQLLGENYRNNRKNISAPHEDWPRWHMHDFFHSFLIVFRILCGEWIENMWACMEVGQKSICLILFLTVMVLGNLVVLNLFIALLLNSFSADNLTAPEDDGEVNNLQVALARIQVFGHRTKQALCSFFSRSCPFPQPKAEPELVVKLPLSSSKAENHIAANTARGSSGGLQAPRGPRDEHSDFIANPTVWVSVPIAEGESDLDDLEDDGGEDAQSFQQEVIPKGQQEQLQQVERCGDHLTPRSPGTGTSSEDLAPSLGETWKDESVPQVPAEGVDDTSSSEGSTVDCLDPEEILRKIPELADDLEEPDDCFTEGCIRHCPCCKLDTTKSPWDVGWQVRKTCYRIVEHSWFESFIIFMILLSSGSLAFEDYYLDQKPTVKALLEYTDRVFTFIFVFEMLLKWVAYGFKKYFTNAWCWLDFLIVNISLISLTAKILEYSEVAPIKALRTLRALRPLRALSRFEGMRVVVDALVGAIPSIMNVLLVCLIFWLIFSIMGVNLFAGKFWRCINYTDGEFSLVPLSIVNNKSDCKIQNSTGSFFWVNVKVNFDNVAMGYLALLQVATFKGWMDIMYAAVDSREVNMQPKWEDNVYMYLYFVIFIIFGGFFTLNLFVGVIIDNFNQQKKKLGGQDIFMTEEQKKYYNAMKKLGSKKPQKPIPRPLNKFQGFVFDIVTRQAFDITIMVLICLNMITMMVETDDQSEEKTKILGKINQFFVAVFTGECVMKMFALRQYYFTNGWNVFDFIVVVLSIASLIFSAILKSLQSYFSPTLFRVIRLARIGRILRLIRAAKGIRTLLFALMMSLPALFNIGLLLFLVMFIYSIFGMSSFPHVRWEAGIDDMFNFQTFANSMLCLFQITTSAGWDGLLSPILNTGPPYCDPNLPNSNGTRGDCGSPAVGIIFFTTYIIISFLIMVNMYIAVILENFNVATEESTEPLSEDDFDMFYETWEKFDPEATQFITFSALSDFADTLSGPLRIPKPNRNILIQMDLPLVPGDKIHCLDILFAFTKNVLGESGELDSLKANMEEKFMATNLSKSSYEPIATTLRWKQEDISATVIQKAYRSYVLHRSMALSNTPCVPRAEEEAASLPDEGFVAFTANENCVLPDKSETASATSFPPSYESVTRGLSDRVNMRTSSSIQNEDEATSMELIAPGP
pIC50: −log10 of the molar value.
measure name: pIC50

compound | comparison operator | measured number
COc1cc(F)ccc1Oc1cc(C(F)(F)F)ncc1C(=O)Nc1ccnnc1 | = | 7.15
COc1cc(F)ccc1Oc1ncc(C(F)(F)F)cc1C(=O)NCc1cccnc1N1CCOCC1 | < | 5.00
CS(=O)(=O)c1cccc(NC(=O)c2cc(C(F)(F)F)cnc2Oc2ccc(OC(F)(F)F)cc2)c1 | = | 7.70
COc1cc(F)ccc1Oc1ncc(C(F)(F)F)cc1C(=O)NCCN(C)C | < | 5.00
COc1cc(F)ccc1Oc1ncc(C(F)(F)F)cc1C(=O)Nc1cccc(S(C)(=O)=O)c1 | = | 7.85
COc1cc(F)ccc1Oc1ncccc1C(=O)Nc1cccc(S(C)(=O)=O)c1 | < | 5.00
COc1cc(F)ccc1Oc1nccnc1C(=O)Nc1cccc(S(C)(=O)=O)c1 | < | 5.00
O=C(Nc1ccc[n+]([O-])c1)c1cc(C(F)(F)F)cnc1Oc1ccc(F)cc1Cl | = | 7.25
COc1cc(F)ccc1Oc1nc(C(F)(F)F)ncc1C(=O)Nc1cccc(S(C)(=O)=O)c1 | < | 5.00
CS(=N)(=O)c1cccc(NC(=O)c2cc(C(F)(F)F)cnc2Oc2ccc(F)cc2Cl)c1 (configuration not stated) | = | 7.92
COc1cc(F)ccc1Oc1ncc(C(F)(F)F)cc1C(=O)Nc1cccc(S(C)(=N)=O)c1 (configuration not stated) | = | 7.64
COc1cc(F)ccc1Oc1ncc(C(F)(F)F)cc1C(=O)Nc1cccc([S+](C)[O-])c1 (configuration not stated) | = | 7.40

----------
Each entry below carries its reported INH.
Biological target: Cytochrome P450 1A2 (Homo sapiens)
Sequence (P05177 whole entry): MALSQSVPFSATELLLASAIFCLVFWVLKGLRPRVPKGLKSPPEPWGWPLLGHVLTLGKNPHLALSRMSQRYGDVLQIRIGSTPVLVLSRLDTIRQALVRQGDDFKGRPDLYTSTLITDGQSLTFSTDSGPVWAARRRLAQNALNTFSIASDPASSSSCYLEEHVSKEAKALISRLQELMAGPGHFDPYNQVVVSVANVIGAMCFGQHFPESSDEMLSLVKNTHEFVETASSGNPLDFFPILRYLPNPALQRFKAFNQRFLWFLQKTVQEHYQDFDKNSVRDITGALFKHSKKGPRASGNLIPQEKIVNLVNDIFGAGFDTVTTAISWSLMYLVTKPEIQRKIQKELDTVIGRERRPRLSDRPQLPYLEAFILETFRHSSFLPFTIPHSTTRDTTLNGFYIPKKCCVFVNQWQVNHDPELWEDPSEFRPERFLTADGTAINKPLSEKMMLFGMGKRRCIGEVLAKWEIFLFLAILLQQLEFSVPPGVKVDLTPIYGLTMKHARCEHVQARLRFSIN
Assay: Inhibition of CYP1A2 (unknown origin)
Type: ADME
measure name: INH

compound | result
CS(=N)(=O)c1cccc(NC(=O)c2cc(C(F)(F)F)cnc2Oc2ccc(F)cc2Cl)c1 (centres undefined) | > 30 µM
Cc1cc(F)ccc1Oc1ncc(C(F)(F)F)cc1C(=O)Nc1cccc([S@](C)(=N)=O)c1 | > 30 µM
COc1cc(F)ccc1Oc1cc(C(F)(F)F)ncc1C(=O)Nc1ccnnc1 | 4 µM
O=C(Nc1ccc[n+]([O-])c1)c1cc(C(F)(F)F)cnc1Oc1ccc(F)cc1Cl | > 30 µM

src = ChEMBL document CHEMBL6114946
